The measurements presented in this section are drawn from patent US20210070881A1.

measuredTarget: cellular BACE1 in CHOK1-huAPP cells
testDetails: cell-based or functional assay
property: Cellular IC50 (nM)
Give just the numeric value; nM need not be written.

Below, 2 binders whose answers are already recorded.
# binder, property, val
measured = [
    ("3C11 (antibody, human IgG1, V domains shown, chimeric, human IgG1/kappa; also called Clone 3C11) VH: EVQLQQSGADLMKPGASVKLSCKATGYTFTGYWIEWVKQRPGHGLEWIGEIFPGSVSTNYNEKFKGKATFTADTSSNTAYMQLSSLTTEDSAIYYCARSPIYYDYADYWGQGTTLTVSS VL: DIVLSQSHKFMSTSVGDRVSITCKASQDVGTAVAWYQQKPGQSPKALIYLASNRHTGVPDRFTGSGSGTDFTLTISNVQSEDLAEYFCQQYNSYPYTFGGGTRLEIK", "Cellular IC50", 36),
    ("4A4 (antibody, human IgG1, V domains shown, chimeric, human IgG1/kappa; also called Clone 4A4) VH: EVKLMESGPGLVAPSQSLSITCTVSGFSLTSYPINWVRQPPGKGLEWLGVIWTGGSTNYNSALKSRLSISRDNSKSQVFLKMNSLQTDDTARYYCARWDGYFGAFDYWGQGTTVTVSS VL: DIVMTQTTSSLSASLGDRVTISCRASQDISKYLNWYQQKPDGTVKLLIYYTSRLHSGVPSRFSGSGSGTDYSLTISNLEQEDIATYFCQQSLSLPYTFGGGTRLEIK", "Cellular IC50", 17),
]

Shift focus to the following entry.
Req: Give its Cellular IC50 value. Item: 2E1 (antibody, human IgG1, V domains shown, chimeric, human IgG1/kappa; also called Clone 2E1) VH: EVQLQQPGTELVRPGTSVKLSCKASGYTFTNFWMHWVKQRPGQGLEWIGVINPSDTYTKFNQKFRGKATLTVDTSSSTAYMQLSSLTSEDSAVYFCARPTVGLDYWGQGTSVTVSS VL: DIVMTQSQKFMPTSVGDRVSVTCKASQNVGSNVAWYQQKSGQSPKALIYSASHRYSGVPDRFTGSGSGTDFTLTISNVQSEDLAEYFCQQYNSYPYTFGGGTKLEIK
Resp: 34
